# target-entity: T1, dimeric human LTBR-Fc biotinylated (P1AE2401) (human, UniProt P36941 31-227, biotinylated in vitro)
# T1 construct: bought from R&D Systems (7538-LR); also called human LTBR ECD; not shown: human IgG1 Fc-Fragment
# run-description: competition ELISA vs lymphotoxin α1β2 (P1AE1235)
A collection of binders and their measured rel. fit bottom (OD)
result-type: rel. fit bottom (OD)

- binder: "P1AF0079 (antibody, human IgG1, kappa, L234A L235A, V domains shown, human IgG1 PG LALA; from transgenic rabbit immunization; also called LTBR (0079)) VH: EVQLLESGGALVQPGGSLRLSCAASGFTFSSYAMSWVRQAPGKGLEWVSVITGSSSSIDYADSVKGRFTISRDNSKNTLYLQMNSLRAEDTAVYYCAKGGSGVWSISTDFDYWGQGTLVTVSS VL: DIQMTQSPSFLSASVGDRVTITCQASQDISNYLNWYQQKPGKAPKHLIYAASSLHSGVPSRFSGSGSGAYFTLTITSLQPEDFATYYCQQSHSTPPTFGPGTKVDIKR"
  readout-value: "0.3 OD"
- binder: "P1AF0080 (antibody, human IgG1, kappa, L234A L235A, V domains shown, human IgG1 PG LALA; from transgenic rabbit immunization; also called LTBR (0080)) VH: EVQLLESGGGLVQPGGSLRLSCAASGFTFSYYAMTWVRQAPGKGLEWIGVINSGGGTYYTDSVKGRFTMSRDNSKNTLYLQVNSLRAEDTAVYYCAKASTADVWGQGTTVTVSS VL: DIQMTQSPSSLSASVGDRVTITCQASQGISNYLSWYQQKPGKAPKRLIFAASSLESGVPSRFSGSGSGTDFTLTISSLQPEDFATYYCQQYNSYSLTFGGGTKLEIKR"
  readout-value: "1.6 OD"
